Test system: Mcl-1
Test: Fluorescence polarization competition assay (FPCA), Mcl-1 / FITC-Bak BH3 peptide
Assay type: binding, human
Run parameters: Mcl-1 over Bcl-xL
Method: The tagged protein was initially purified from the crude cell lysate by immobilized metal affinity chromatography (IMAC) chromatography (GE Healthcare Life Sciences), and after dialysis to remove the imidazole the affinity tag was cleaved using PreScission Protease (GE Healthcare Life Sciences). […] The target molecules were assayed for their abilities to disrupt the Mcl-1-Bak-BH3 PPI in a fluorescence polarization competition (FPC) assay with Mcl-1 and FITC-labeled Bak-BH3 peptide. […]
Field: Selectivity, Ki (Bcl-xL) divided by Ki (Mcl-1). Provide a value for each of the molecules that follow.
A bare number is all that is needed in reply.

Query block: For the molecule O=C(O)c1cc(S(=O)(=O)Nc2ccc(Oc3ccc(Cl)cc3Cl)cc2)c2ccccc2c1O , report Selectivity, Ki (Bcl-xL) divided by Ki (Mcl-1).
Result block: 2.4

Query block: Fill in Selectivity, Ki (Bcl-xL) divided by Ki (Mcl-1) for record O=C(O)c1cc(S(=O)(=O)Nc2cccc3ccccc23)c2ccccc2c1O
Result block: 10

Query block: State, in one line, measured Selectivity, Ki (Bcl-xL) divided by Ki (Mcl-1) of Cc1cc(Oc2ccc(NS(=O)(=O)c3cc(C(=O)O)c(O)c4ccccc34)cc2)cc(C)c1Cl
Result block: 4.1

Query block: State its Selectivity, Ki (Bcl-xL) divided by Ki (Mcl-1): O=C(O)c1cc(S(=O)(=O)Nc2ccccc2C(F)(F)F)c2ccccc2c1O
Result block: 4.8

Query block: Look up and report measured Selectivity, Ki (Bcl-xL) divided by Ki (Mcl-1) for this entry: Cc1cc(Oc2ccc(N(CC(C)C)S(=O)(=O)c3cc(C(=O)O)c(O)c4ccccc34)cc2)cc(C)c1Cl
Result block: 2.1

Query block: Give the measured Selectivity, Ki (Bcl-xL) divided by Ki (Mcl-1) for O=C(O)c1cc(S(=O)(=O)NCc2ccc(Cl)cc2)c2ccccc2c1O
Result block: 16

Query block: Return reported Selectivity, Ki (Bcl-xL) divided by Ki (Mcl-1). Input molecule: O=C(O)c1cc(S(=O)(=O)Nc2ccc(Br)cc2)c2ccccc2c1O
Result block: 19

Query block: Let me know recorded Selectivity, Ki (Bcl-xL) divided by Ki (Mcl-1) for O=C(O)c1cc(S(=O)(=O)NCC2CCCCC2)c2ccccc2c1O , thanks.
Result block: 11

Query block: Return Selectivity, Ki (Bcl-xL) divided by Ki (Mcl-1) for the following molecule: O=C(O)c1cc(S(=O)(=O)Nc2ccc3ccccc3c2)c2ccccc2c1O
Result block: 15

Query block: Look up and report measured Selectivity, Ki (Bcl-xL) divided by Ki (Mcl-1) for this entry: COc1ccc(NS(=O)(=O)c2cc(C(=O)O)c(O)c3ccccc23)cc1
Result block: 6

Query block: Let me know recorded Selectivity, Ki (Bcl-xL) divided by Ki (Mcl-1) for Cc1cc(Oc2ccc(N(C3CCCC3)S(=O)(=O)c3cc(C(=O)O)c(O)c4ccccc34)cc2)cc(C)c1Cl , thanks.
Result block: 8.8

Query block: Give the value of Selectivity, Ki (Bcl-xL) divided by Ki (Mcl-1) reported for the following: O=C(O)c1cc(S(=O)(=O)Nc2ccc(Br)cc2Br)c2ccccc2c1O
Result block: 5.5

The reported measurements were obtained from patent US10858316B2.
